Target: muscarinic acetylcholine receptor (mAChR)
Test: Protection of mAChR from inactivation by the endogenous LMW inhibitor, [3H]QNB (antagonist) binding
Parameters: species or system human
Settings: inactivation by LMW inhibitor or heme and peroxide; loss of antagonist (3H-QNB) and agonist (3H-Oxotremorine M) binding, FIGS. 1-3; not specified further; read-out: concentration that provides 50% protection of the mAChR
parameter-measured: EC50

Tested system muscarinic acetylcholine receptor (mAChR); EC50 recorded for O=P(O)(O)OP(=O)(O)O [pyrophosphate] was ~1000 nM

====

Molecular target: muscarinic acetylcholine receptor (mAChR)
Details: read-out: concentration that provides 50% protection of the mAChR from damage by PbCl2, 3H-QNB binding, FIG. 20
parameter-measured: EC50

Sure, the documented EC50 for O=P(O)(O)OP(=O)(O)O [pyrophosphate] is ~57 µM

These measurements were taken from patent US9072756B2.
